System: IMR-90 cells
test_protocol: MTT assay, cytotoxicity against IMR-90 cells (model of normal cells)
Type: cell-based, human
settings: Homo sapiens, IMR-90; MTT, 37 °C, treated for 24 h; read-out: EC50 against IMR-90
Reported EC50 is given for each of the following compounds.

Some solved entries appear below for comparison.
c1ccc(-c2ccc(OCc3cccc(COc4ccc(-c5ccccn5)nc4)c3)cn2)nc1 [compound 2] = > 100 µM
CC(=O)OCOC(=O)CN(CC(=O)OCOC(C)=O)c1ccccc1OCCOc1ccccc1N(CC(=O)OCOC(C)=O)CC(=O)OCOC(C)=O [BAPTA-AM, reference compound] = > 50 µM
c1ccc(COc2ccc(-c3ccccn3)nc2)cc1 [compound 3, 5-(Benzyloxy)-2,2′-bipyridine] = 75 µM

Next up:
Task: I'd like to know its EC50. The compound in question is c1ccc(-c2ccc(OCc3cc(COc4ccc(-c5ccccn5)nc4)cc(COc4ccc(-c5ccccn5)nc4)c3)cn2)nc1 [compound 1]
Output: > 100 µM
